- TESTED TARGET: hERG channels (CHO cell line stably expressing hERG) (Homo sapiens (Human), UniProt Q12809)
- Sequence (Q12809 whole entry): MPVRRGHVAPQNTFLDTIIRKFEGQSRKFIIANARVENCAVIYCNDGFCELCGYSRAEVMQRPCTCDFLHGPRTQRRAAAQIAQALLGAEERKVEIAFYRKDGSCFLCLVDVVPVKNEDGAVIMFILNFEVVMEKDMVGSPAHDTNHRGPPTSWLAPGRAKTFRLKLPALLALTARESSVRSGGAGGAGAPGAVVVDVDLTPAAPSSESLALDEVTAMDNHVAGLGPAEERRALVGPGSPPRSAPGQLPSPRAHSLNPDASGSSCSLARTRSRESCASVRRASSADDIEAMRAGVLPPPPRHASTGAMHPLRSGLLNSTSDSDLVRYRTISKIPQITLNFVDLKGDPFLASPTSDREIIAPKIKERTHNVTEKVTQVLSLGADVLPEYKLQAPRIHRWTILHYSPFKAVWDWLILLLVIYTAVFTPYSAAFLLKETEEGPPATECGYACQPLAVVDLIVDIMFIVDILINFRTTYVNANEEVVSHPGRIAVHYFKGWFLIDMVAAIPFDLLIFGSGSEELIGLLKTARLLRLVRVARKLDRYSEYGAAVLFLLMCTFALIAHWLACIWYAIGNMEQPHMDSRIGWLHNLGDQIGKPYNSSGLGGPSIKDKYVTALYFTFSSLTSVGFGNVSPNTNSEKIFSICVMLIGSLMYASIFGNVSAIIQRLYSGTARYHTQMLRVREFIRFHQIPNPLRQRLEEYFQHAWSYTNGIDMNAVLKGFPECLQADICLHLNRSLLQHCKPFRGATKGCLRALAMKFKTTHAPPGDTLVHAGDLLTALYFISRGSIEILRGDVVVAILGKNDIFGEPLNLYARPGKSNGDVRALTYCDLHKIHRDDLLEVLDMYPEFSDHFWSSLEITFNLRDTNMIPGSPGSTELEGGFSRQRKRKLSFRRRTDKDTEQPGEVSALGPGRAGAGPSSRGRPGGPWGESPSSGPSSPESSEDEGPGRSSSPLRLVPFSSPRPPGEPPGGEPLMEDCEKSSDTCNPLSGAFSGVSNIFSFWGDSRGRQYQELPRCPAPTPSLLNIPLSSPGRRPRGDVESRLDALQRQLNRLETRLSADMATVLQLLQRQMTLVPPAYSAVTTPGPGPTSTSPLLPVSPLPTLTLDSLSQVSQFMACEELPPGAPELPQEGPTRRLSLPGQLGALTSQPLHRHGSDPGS
- ASSAY NOTES: Inhibitory effect on hERG by full-automatic electrophysiological patch clamp QPatch
- Assay type: cell-based
- RECORDED CONDITIONS: CHO hERG cells, QPatch
QUANTITY KIND: pIC50
Would you please state pIC50, meaning minus log10 of the concentration in mol/L, as a bare number?

Example entries and their recorded answers appear below.
> print(dat)
                                   molecule  quantity.kind  observed.value
1  C[C@@H](OCCc1c[nH]nn1)C(=O)N1Cc2cnc(NC3Cc4ccccc4C3)nc2C1 [Compound I-1R]          pIC50            4.66
2  C[C@@H](Cc1cnn[nH]1)OCC(=O)N1Cc2cnc(NC3Cc4ccccc4C3)nc2C1 [Compound I-2S]          pIC50            5.06
3  C[C@H](Cc1cnn[nH]1)OCC(=O)N1Cc2cnc(NC3Cc4ccccc4C3)nc2C1 [Compound I-2R]          pIC50            5.02

Here is the next item to consider.
Noted for CC(OCCc1c[nH]nn1)C(=O)N1Cc2cnc(NC3Cc4ccccc4C3)nc2C1 (racemic) [Compound I-1] : its pIC50 reads 4.65
